MIC to H. Pylori without EDTA tested on Heliobacter pylori: recorded values
Express it in µg/mL; write the number only.

INSERT INTO results (compound, metric, meas_value) VALUES
  ('C=C1NC(=O)[C@H](Cc2c[nH]c3ccccc23)NC(=O)[C@H](NC(=O)[C@H](CCCCN)NC(=O)[C@@H](N)[C@@H](C)CC)CSC[C@@H](C(=O)N[C@H]2C(=O)N3CCC[C@H]3C(=O)NCC(=O)N[C@H](C(=O)N[C@@H](C)C(=O)N[C@@H](CC(N)=O)C(=O)NC(=CC)C(=O)NCC(=O)N[C@@H]3CSC[C@@H]4NC(=O)[C@H](Cc5ccc(O)cc5)NC(=O)[C@@H](CS/C=C\NC4=O)NC(=O)[C@H](CC(N)=O)NC(=O)[C@H](Cc4ccccc4)NC3=O)CS[C@H]2C)NC(=O)[C@H](CC(C)C)NC1=O [F1I R13N]', 'MIC to H. Pylori without EDTA', 8);

Alright, here's another compound for you.
Q: Give Heliobacter pylori MIC to H. Pylori without EDTA for the following compound: C=C1NC(=O)[C@H](Cc2c[nH]c3ccccc23)NC(=O)[C@H](NC(=O)[C@H](CCCCN)NC(=O)[C@@H](N)CC(C)C)CSC[C@@H](C(=O)N[C@H]2C(=O)N3CCC[C@H]3C(=O)NCC(=O)N[C@H](C(=O)N[C@@H](C)C(=O)N[C@@H](CC(=O)O)C(=O)NC(=CC)C(=O)NCC(=O)N[C@@H]3CSC[C@@H]4NC(=O)[C@H](Cc5ccc(O)cc5)NC(=O)[C@@H](CS/C=C\NC4=O)NC(=O)[C@H](CC(N)=O)NC(=O)[C@H](Cc4ccccc4)NC3=O)CS[C@H]2C)NC(=O)[C@H](CC(C)C)NC1=O [F1L R13D]
Ans: 8

The measured values listed here are drawn from patent US20190315814A1.
